Values compiled from PubChem BioAssay.

experiment: inhibitors of Sendai virus-induced IRF3 signaling, primary screen, TLR/RLR signaling modifier project, cell-based, Sendai virus stimulus, luciferase, 10K MLSCN set (AID 602276); conditions: HEK293 RL24 IRF3 luciferase reporter, at 10 µM, active compounds read high;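 further: firefly luciferase from ISG56 promoter only with Renilla not read in this screen; 0% = Sendai virus plus DMSO and 100% = medium plus DMSO without virus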
For each entry below, report its inhibition value.
Dear colleague, please return just the value in %, with no unit written.

Q: Fill in: inhibition of CCSc1oc(-c2cccs2)nc1S(=O)(=O)c1ccccc1 is ___
A: 14.5

Q: Consider next the compound CCOc1ccc(OCc2cccc(C(=O)N3CCCC3)c2)cc1 in the same way.
A: -43

Q: Consider next the compound CCCNC(=O)c1ccccc1NC(=O)CN(c1ccccc1OCC)S(C)(=O)=O in the same way.
A: -1.76

Q: Consider next the compound Cc1ccc(-c2nn(C)c(=O)c3ccccc23)cc1S(=O)(=O)NCCN1CCOCC1 in the same way.
A: -17.1

Q: Consider next the compound CCOC(=O)C(C)Sc1nnc(Cc2cc(=O)[nH]c(=O)[nH]2)n1-c1ccc(Cl)cc1 (stereo not given) in the same way.
A: 15.5
